biological target: shed MICA004 polypeptide (human) (UniProt Q29983); test: capture ELISA (anti-hFc / antibody / shed antigen / biotin-6D4)
Class membership depends on Max OD450 alone; the intervals are low value: < 1; medium value: ≥ 1 and < 2; high value: ≥ 2

A selection of reference data follows.
Bin? 6E1.1.12 (antibody, human IgG1, kappa, V domains shown) VH: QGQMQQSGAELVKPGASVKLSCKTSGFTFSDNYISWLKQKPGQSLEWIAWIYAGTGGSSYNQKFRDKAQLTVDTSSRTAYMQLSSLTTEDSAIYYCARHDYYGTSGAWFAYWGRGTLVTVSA VL: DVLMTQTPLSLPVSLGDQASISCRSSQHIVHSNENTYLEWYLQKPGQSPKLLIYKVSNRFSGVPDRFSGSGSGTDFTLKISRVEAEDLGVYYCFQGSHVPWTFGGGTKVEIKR
medium value

Pick a category. Item: #38 (antibody, V domains shown) VH: QVQLQQSGAELARPGASVKLSCKASGYTFSIHWMQWVKQRPGQGLEWIGAIYPGNGDTKYTQKFKGKATLTADKSSSTAYMQLSNLASEDSAVYYCATLYGNYEAYWGQGTLVTVSA VL: DIVLTQSPASLSASVGETVTITCGASENIYGALNWYQRKQGKSPQLLIYGTTNLADGMSSRFSGSGSGRQYSLKISSLHPDDVATYYCQNVLTTPPWTFGGGTKLEIK
high value

Please let me know in which category the item #34 (antibody, V domains shown) VH: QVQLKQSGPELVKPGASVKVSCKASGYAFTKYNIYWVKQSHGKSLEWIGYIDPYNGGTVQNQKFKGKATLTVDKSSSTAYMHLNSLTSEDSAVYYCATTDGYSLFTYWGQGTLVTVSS VL: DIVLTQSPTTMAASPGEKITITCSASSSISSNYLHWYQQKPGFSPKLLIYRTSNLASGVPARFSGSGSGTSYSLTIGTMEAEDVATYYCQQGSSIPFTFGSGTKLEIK belongs.
medium value

Which bin should I file #39 (antibody, V domains shown) VH: QVQLQQSGAELVRPGTSVKVSCKASGYAFTDYLIEWVKQRPGQGLEWIGGINPGSGSTNYNEKFKGKAILTADKSSSTAYMQLSSLTSDDSAVYFCARLDGNYVGYWGQGTTLTVSS VL: DILLTQSPASLSASVGETVTITCRASGNIHNYLAWYQQKQGKSPQLLVYHAKTLADGVPSRFSGSGSGTQYSLKINSLQPEDFGSYYCQHFWSTPWTFGGGTKLEIK under?
low value

Classify this binder: 13A9 (antibody, human IgG1, kappa, V domains shown) VH: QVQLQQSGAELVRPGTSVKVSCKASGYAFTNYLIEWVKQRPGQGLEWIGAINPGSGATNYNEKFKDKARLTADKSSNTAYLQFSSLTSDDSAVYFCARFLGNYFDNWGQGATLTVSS VL: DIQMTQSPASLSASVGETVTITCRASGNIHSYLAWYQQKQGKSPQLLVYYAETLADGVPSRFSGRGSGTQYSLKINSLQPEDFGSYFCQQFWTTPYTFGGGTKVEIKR
low value

***
Using the reported Max OD450, which band applies to 3F9 (antibody, human IgG1, kappa, V domains shown) VH: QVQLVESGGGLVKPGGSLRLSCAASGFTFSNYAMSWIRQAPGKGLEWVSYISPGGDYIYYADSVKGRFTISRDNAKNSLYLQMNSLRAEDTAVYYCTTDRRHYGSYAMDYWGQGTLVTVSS VL: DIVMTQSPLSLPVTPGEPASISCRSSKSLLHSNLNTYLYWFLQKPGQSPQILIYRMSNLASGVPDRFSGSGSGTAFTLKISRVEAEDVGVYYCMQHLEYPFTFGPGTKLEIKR ?
high value

Bin? #36 (antibody, V domains shown) VH: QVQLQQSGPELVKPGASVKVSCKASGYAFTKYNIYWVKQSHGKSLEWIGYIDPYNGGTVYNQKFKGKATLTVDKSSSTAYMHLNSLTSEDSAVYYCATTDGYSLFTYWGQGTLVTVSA VL: DIQMTQTTSSLSASLGDRVTISCRASQDISNYLNWYQQKPDGTVKLLIYYTSRLHSGVPSRFSGSGSGTDYSLTISNLEQEDIATYFCQQGNTLPFTFGSGTKLEIK
medium value

Pick a category. Item: #31 (antibody, V domains shown) VH: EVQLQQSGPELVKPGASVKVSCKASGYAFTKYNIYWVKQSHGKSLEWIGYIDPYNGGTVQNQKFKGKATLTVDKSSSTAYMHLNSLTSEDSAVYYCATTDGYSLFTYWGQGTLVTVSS VL: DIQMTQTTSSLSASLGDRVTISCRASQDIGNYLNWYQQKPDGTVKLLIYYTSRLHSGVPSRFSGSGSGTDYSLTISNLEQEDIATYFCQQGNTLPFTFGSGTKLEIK
medium value

Category of 1D5 (antibody, human IgG1, kappa, V domains shown) VH: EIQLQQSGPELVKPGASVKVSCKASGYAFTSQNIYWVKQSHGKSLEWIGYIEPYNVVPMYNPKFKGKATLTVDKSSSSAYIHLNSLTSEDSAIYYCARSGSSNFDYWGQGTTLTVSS VL: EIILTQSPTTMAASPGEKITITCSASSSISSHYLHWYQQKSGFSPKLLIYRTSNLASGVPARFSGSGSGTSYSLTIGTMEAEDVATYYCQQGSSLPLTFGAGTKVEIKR :
high value

Band assignment needed for #40 (antibody, V domains shown) VH: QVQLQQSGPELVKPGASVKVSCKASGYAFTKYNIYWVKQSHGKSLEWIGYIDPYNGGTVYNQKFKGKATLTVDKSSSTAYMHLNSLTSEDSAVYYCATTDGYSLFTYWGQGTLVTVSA VL: DIQMTQTTSSLSASLGDRVTITCSAGQGINNYLNWYQQKPDGTVKLLIFYTSSLQSGVPSRFSGSGSGADYSLTISNLEPEDIATYYCQQYSKLPLTFGAGTKLELK please.
medium value
